System: normal human fibroblasts
Test: Cell viability in the screening of functionalising molecules
Settings: 1% of molecule (25 kDa PEI: 50 μM), 96-well plate
Threshold-based label: Viability under 70% gives 1, Viability not under 70% gives 0.

Prompt: Given CCCCCCCCCCCN , is recorded Viability strictly lower than 70%?
Completion: 0

---
Prompt: Does this compound meet the criterion Viability < 70%? CCCCCCCCCCCCCN
Completion: 1

Prompt: Lab log: compare recorded Viability with 70%; is it strictly lower for CCCCCCCCCCCCCCN ?
Completion: 1

Prompt: Record CCCCCCCCCCCCCCCN : is its Viability strictly below 70%?
Completion: 0

Prompt: hey, is Viability for CCCN lower than 70% or not?
Completion: 0

Prompt: Please determine if CCCCCCCCCCNCCCCCCCCCC is below 70% in terms of Viability.
Completion: 1

Prompt: Is Viability of CCCCCCCN strictly below 70%?
Completion: 1

Prompt: hey, is Viability for CCCCNCCCC lower than 70% or not?
Completion: 0

Prompt: Lab log: compare recorded Viability with 70%; is it strictly lower for CCCCCCCCCCCCCCCCCCN ?
Completion: 1

---

Property: Viability; scope: individual molecules
Test system: normal human fibroblasts
Assay: Cell viability in the screening of functionalising molecules
Details: 1% of molecule (25 kDa PEI: 50 μM), 96-well plate
Method: 250 μl of liposomal suspension is added onto cultures of normal human fibroblasts extracted from abdominal plasy and cultivated in a 96-well plate. Each concentration is tested on 6 different wells. The cell viability is evaluated by a test with paranitrophenylphosphate which determines the intracellular alkaline phosphatase activity after three rinses with pH 7.4 phosphate buffer. […] The intracellular penetration and the cytotoxicity are evaluated as described in Example 2.
Give the quantity in %, number only.

Prompt: State the recorded Viability for this entry: CCCCCCCCCCCCCCCCCC[N+](C)(C)Cc1ccccc1.[Cl-] [Stearalkonium chloride]
Completion: 37.4

Prompt: // returns reported Viability for input C[N+](C)(CCO)CCCNC(=O)[C@H](O)[C@@H](O)[C@H](O)[C@H](O)CO.[Cl-]
Completion: 98.9

Prompt: Query: Viability; subject: CCCCCCCCNCCCCCCCC
Completion: 34.7

Prompt: I have this molecule here, CCCCCCN , and I need its recorded Viability.
Completion: 82.1

---
Prompt: Which Viability value is on record for CC(O)CN(CCN(CC(C)O)CC(C)O)CC(C)O (stereo not shown) [Tetrahydroxypropyl ethylenediamine] ?
Completion: 95.3

Prompt: Requested read-out: Viability. Entry: CCCCCCCCCCCCN
Completion: 57

Prompt: If you can, please state the reported Viability value of CCCCCCCC/C=C\CCCCCCCCN .
Completion: 87.1

---

Assay: Encapsulation of fluorescent tracer in soya lecithin liposomes (yield, leak)
Type: physicochemical
measureName: Encapsulated

Prompt: I have this compound here, NNC(=O)COc1cc(S(=O)(=O)[O-])c2ccc3c(S(=O)(=O)[O-])cc(S(=O)(=O)[O-])c4ccc1c2c43.[Na+].[Na+].[Na+] [cascade blue hydrazine trisodium salt] , and I need its recorded Encapsulated.
Completion: Yes

Prompt: If you can, please state the reported Encapsulated value of O=S(=O)([O-])c1cc(O)c2ccc3c(S(=O)(=O)[O-])cc(S(=O)(=O)[O-])c4ccc1c2c34.[Na+].[Na+].[Na+] .
Completion: No

Prompt: Which Encapsulated is reported for this compound? Cc1ccc(N(CC(=O)[O-])CC(=O)[O-])c(OCCOc2cc3cc(-c4ncc(C(=O)[O-])o4)oc3cc2N(CC(=O)[O-])CC(=O)[O-])c1.[K+].[K+].[K+].[K+].[K+] [#F-1200 Fura-2. pentapotassium salt, Fura-2. pentapotassium salt]
Completion: No

Prompt: Entry under review: O=C1OC2(c3ccc(O)cc3Oc3cc(O)ccc32)c2ccc(NC(=O)c3c(F)c(F)c(F)c(F)c3F)cc21 [PFB-F, 5-pentafluorobenzoylaminofluorescein] . Reported Encapsulated?
Completion: Yes
